# reported IC50; entries follow
- tested.system: 11β-HSD1 (Mus musculus, UniProt P50172)
- Construct: endogenous in cells
- Sequence (P50172 whole entry): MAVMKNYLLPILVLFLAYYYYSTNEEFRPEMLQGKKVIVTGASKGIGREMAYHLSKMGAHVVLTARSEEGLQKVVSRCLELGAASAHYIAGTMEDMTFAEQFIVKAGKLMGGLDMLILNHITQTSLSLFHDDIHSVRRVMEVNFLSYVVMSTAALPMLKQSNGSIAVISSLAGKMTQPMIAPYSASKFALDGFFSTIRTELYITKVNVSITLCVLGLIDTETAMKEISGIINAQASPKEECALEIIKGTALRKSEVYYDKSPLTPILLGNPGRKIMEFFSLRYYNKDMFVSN
- method.description: Cellular assay, 11β-HSD1 activity in differentiated 3T3-L1 cells
- protocol.conditions: 4 hour pre-incubation, read-out: [C2] HSD1 cellular 3T3-L1 Score
quantity.measured: IC50

INSERT INTO measurements (molecule, tested_system, quantity_measured, recorded_value) VALUES
  ('Cc1cccc(C)c1CC1CCN(C2C3CC4CC(C3)CC2C4)C1=O (centres unmarked) [Compound 12]', '11β-HSD1 (Mus musculus, UniProt P50172)', 'IC50', '> 10 µM'),
  ('O=C1C(Cc2ccc(OC(F)(F)F)cc2)CCCN1C1C2CC3CC(C2)CC1C3 (centres unmarked) [Compound 23]', '11β-HSD1 (Mus musculus, UniProt P50172)', 'IC50', '> 10 µM'),
  ('O=C1C(Cc2ccc(OC(F)(F)F)cc2)CCN1C1C2CC3CC(C2)CC1C3 (centres unmarked) [Compound 15]', '11β-HSD1 (Mus musculus, UniProt P50172)', 'IC50', '> 10 µM'),
  ('COc1cccc(CC2(C)CCCN(C3C4CC5CC(C4)CC3C5)C2=O)c1 (centres unmarked) [Compound 27]', '11β-HSD1 (Mus musculus, UniProt P50172)', 'IC50', '> 10 µM'),
  ('Cc1cccc(CC2(C)CCN(C3C4CC5CC(C4)CC3C5)C2=O)c1F (centres unmarked) [Compound 2]', '11β-HSD1 (Mus musculus, UniProt P50172)', 'IC50', '< 1 µM');

Attribution: patent US7687644B2
